Origin of measurements: ChEMBL document CHEMBL6127070

# System: Pseudomonas aeruginosa
# experimentSummary: Antibacterial activity against Pseudomonas aeruginosa assessed as effect on bacterial growth at 18.75 microg/ml incubated for 24 hrs by growth curve analysis
# Type: functional, organism-based
# conditionLabel: dose 18.75 µg/ml
The source made the active and inactive calls. The calls are words filed in the database; no cut-off is given here.

# smilesNotation, Activity
records = [
    ("Brc1ccc(-c2ccnc3c(-c4nc5ccccc5s4)cnn23)cc1", "inactive"),
    ("c1ccc(-c2ccnc3c(-c4nc5ccccc5s4)cnn23)cc1", "inactive"),
    ("Cc1nc2c(-c3nc4ccccc4s3)cnn2c(C)c1Cl", "inactive"),
    ("N#C/C(=C\\c1ccc(N2CCOCC2)cc1)c1nc2ccccc2s1", "inactive"),
]

* * *

# System: Escherichia coli
# experimentSummary: Antimicrobial activity against Escherichia coli ATCC 25922 assessed as growth inhibition zone by agar diffusion method
# Assay type: functional
Catalogue of compounds with associated inhibition zone (IZ)
Your answer should be a plain number; it is taken to be in mm.

For record N#C/C(=C\c1ccc(N2CCOCC2)cc1)c1nc2ccccc2s1 the listed inhibition zone (IZ) is 24

For record N#C/C(=C\c1ccc(N2CCCCC2)cc1)c1nc2ccccc2s1 the listed inhibition zone (IZ) is 25

For record N#C/C(=C\c1ccc(N2CCCC2)cc1)c1nc2ccccc2s1 the listed inhibition zone (IZ) is 24

For record Cc1cc(C)n2ncc(-c3nc4ccccc4s3)c2n1 the listed inhibition zone (IZ) is 17

* * *

# Test system: Pseudomonas aeruginosa
# experimentSummary: Antibacterial activity against Pseudomonas aeruginosa by CLSI protocol based broth microdilution method
# Type: functional
# conditionLabel: Pseudomonas aeruginosa
Catalogue of molecules with associated MIC
Your answer should be a plain number; it is taken to be in µg/mL.

# smilesNotation, measuredOn, MIC / µg/mL
records = [
    ("CN1CCN(c2ccc(/C=C(\\C#N)c3nc4ccccc4s3)cc2)CC1", "Pseudomonas aeruginosa", 18.8),
    ("COc1ccc(-c2ccnc3c(-c4nc5ccccc5s4)cnn23)cc1", "Pseudomonas aeruginosa", 18.8),
    ("CC1CCN(c2ccc(/C=C(\\C#N)c3nc4ccccc4s3)cc2)CC1", "Pseudomonas aeruginosa", 18.8),
    ("Cc1nc2c(-c3nc4ccccc4s3)cnn2c(C)c1Cl", "Pseudomonas aeruginosa", 37.5),
]

Now let's try a different one.
For record Clc1ccc(-c2ccnc3c(-c4nc5ccccc5s4)cnn23)cc1 the listed MIC is 18.8

* * *

Catalogue of compounds with associated SubMIC
# Tested on: Pseudomonas aeruginosa
# experimentSummary: Antibacterial activity against Pseudomonas aeruginosa by CLSI protocol based broth microdilution method
# Assay type: functional
Your answer should be a plain number; it is taken to be in µg/mL.

Look over these answered cases.
# smilesNotation, readoutUnits, SubMIC
data = [
    ("COc1ccc(-c2ccnc3c(-c4nc5ccccc5s4)cnn23)cc1", "µg/mL", 9.375),
    ("Cc1cc(C)n2ncc(-c3nc4ccccc4s3)c2n1", "µg/mL", 37.5),
    ("Fc1ccc(-c2ccnc3c(-c4nc5ccccc5s4)cnn23)cc1", "µg/mL", 9.375),
    ("c1ccc(-c2ccnc3c(-c4nc5ccccc5s4)cnn23)cc1", "µg/mL", 18.75),
    ("Cc1nc2c(-c3nc4ccccc4s3)cnn2c(C)c1Cl", "µg/mL", 18.75),
    ("CN1CCN(c2ccc(/C=C(\\C#N)c3nc4ccccc4s3)cc2)CC1", "µg/mL", 9.375),
    ("Brc1ccc(-c2ccnc3c(-c4nc5ccccc5s4)cnn23)cc1", "µg/mL", 18.75),
    ("CC[C@H]1OC(=O)[C@H](C)[C@@H](O[C@H]2C[C@@](C)(OC)[C@@H](O)[C@H](C)O2)[C@H](C)[C@@H](O[C@@H]2O[C@H](C)C[C@H](N(C)C)[C@H]2O)[C@](C)(O)C[C@@H](C)CN(C)[C@H](C)[C@@H](O)[C@]1(C)O", "µg/mL", 16),
    ("CC1CCN(c2ccc(/C=C(\\C#N)c3nc4ccccc4s3)cc2)CC1", "µg/mL", 9.375),
    ("Cc1ccc(-c2ccnc3c(-c4nc5ccccc5s4)cnn23)cc1", "µg/mL", 9.375),
]

For record Nc1[nH]ncc1-c1nc2ccccc2s1 the listed SubMIC is 37.5

For record N#C/C(=C\c1ccc(N2CCCC2)cc1)c1nc2ccccc2s1 the listed SubMIC is 9.375
